# Test system: JAK2 dependent human megakaryoblastic leukemia cell line SET-2
# Test Name: Cell proliferation assay (CellTiter-Glo, 72 hours)
# Format: cell-based
# Protocol Conditions: Homo sapiens, SET-2 cells
pIC50: −log10 of the molar value.
Endpoint Label: pIC50

# count of solved cases: 5
>  <Compound>
Cc1ccc(Cl)cc1-c1[nH]c(-c2ccnc(N)n2)c(C#Cc2ccc(N3CCC(N4CCCCC4)CC3)cc2)c1C(N)=O

>  <pIC50>
6.13

$$$$
>  <Compound>
Cc1ccc(Cl)cc1-c1[nH]c(-c2nc(N)ncc2C#Cc2ccc(N3CCN(C)CC3)cc2F)cc1C(N)=O

>  <pIC50>
6.62

$$$$
>  <Compound>
Cc1ccc(Cl)cc1-c1[nH]c(-c2nc(N)ncc2C#CCN2CCN(C)CC2)cc1C(N)=O

>  <pIC50>
5.86

$$$$
>  <Compound>
Cc1ccc(Cl)cc1-c1[nH]c(-c2ccnc(N)n2)c(C#Cc2cccc(N)c2)c1C(N)=O

>  <pIC50>
6.38

$$$$
>  <Compound>
Cc1ccc(Cl)cc1-c1[nH]c(-c2nc(N)ncc2C#Cc2cc(N3CCN(C)CC3)ccc2F)cc1C(N)=O

>  <pIC50>
6.85

$$$$

A. Cc1ccc(Cl)cc1-c1[nH]c(-c2ccnc(N)n2)c(C#Cc2ccc(OC3CCN(C)CC3)cc2)c1C(N)=O
B. Cc1ccc(Cl)cc1-c1[nH]c(-c2ccnc(N)n2)c(C#Cc2ccc(N3CCN(C)CC3)cc2)c1C(N)=O
// query From the recorded data, which exceeds the other in pIC50: A or B ? Use the label to indicate which entry you chose.
// result A

* * *

# Target Or System: JAK2 kinase domain (Homo sapiens, UniProt O60674)
# Sequence (O60674 849-1124 limits assumed): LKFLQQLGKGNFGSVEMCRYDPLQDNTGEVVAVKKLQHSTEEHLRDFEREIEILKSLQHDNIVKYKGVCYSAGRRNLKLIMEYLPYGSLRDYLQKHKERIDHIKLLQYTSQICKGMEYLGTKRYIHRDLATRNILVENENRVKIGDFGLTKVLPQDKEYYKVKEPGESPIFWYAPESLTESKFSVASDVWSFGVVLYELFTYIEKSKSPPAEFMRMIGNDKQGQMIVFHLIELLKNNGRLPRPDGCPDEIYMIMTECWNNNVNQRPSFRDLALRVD
Endpoint Label: IC50 (nM)

Reference set, count: 2
>  <Compound>
CCc1ccc(Cl)cc1-c1[nH]c(-c2ccnc(N)n2)c(C#Cc2ccc(N3CCN(C)CC3)cc2)c1C(N)=O

>  <Uom>
nM

>  <Reading>
4

$$$$
>  <Compound>
Cc1ccc(Cl)cc1-c1[nH]c(-c2ccnc(N)n2)c(C#Cc2cccc(NC3CCN(C)CC3)c2)c1C(N)=O

>  <Uom>
nM

>  <Reading>
6

$$$$

P. Cc1ccc(Cl)cc1-c1[nH]c(-c2ccnc(N)n2)c(C#Cc2cccc(OC3CCN(C)CC3)c2)c1C(N)=O
Q. Cc1ccc(Cl)cc1-c1[nH]c(-c2nc(N)ncc2C#Cc2ccccc2N)cc1C(N)=O
// query Looking at recorded values for IC50, does P or Q come in lower? Reply with the label of the item you choose.
// result Q

* * *

# System: JAK2 dependent human megakaryoblastic leukemia cell line SET-2
# Test Name: Cell proliferation assay (CellTiter-Glo, 72 hours)
# Type: cell-based
# Protocol Conditions: Homo sapiens, SET-2 cells
pIC50: −log10 of the molar value.
Endpoint Label: pIC50

Solved entries:
>  <Compound>
Cc1ccc(Cl)cc1-c1[nH]c(-c2nc(N)ncc2C#Cc2ccc(Br)cc2)cc1C(N)=O

>  <Reading>
5.61

$$$$
>  <Compound>
Cc1ccc(Cl)cc1-c1[nH]c(-c2nc(N)ncc2C#Cc2cccc(OC3CCN(C)CC3)c2)cc1C(N)=O

>  <Reading>
6.80

$$$$
>  <Compound>
Cc1ccc(Cl)cc1-c1[nH]c(-c2nc(N)ncc2C#Cc2cccc(NCCO)c2)cc1C(N)=O

>  <Reading>
6.62

$$$$

1. Cc1ccc(Cl)cc1-c1[nH]c(-c2nc(N)ncc2C#Cc2cccc(C(=O)N3CCN(C)CC3)c2)cc1C(N)=O
2. Cc1ccc(Cl)cc1-c1[nH]c(-c2nc(N)ncc2C#Cc2ccccc2)cc1C(N)=O
3. Cc1ccc(Cl)cc1-c1[nH]c(-c2nc(N)ncc2C#Cc2cccc(NCCN)c2)cc1C(N)=O
// query // smallest pIC50 at index 0, largest at the end Please reply with the labels ordered as requested. Many thanks.
// result 1, 2, 3

P. Cc1ccc(Cl)cc1-c1[nH]c(-c2nc(N)ncc2C#Cc2ccccc2NCCN(C)C)cc1C(N)=O
Q. Cc1ccc(Cl)cc1-c1[nH]c(-c2ccnc(N)n2)c(C#Cc2cccc(NCCN)c2)c1C(N)=O
// query Record comparison, field pIC50: mark the lower of P and Q . Could you answer with the label of the item you picked?
// result P
(P: 6.25, Q: 6.54)

* * *

# System: JAK2 dependent human megakaryoblastic leukemia cell line SET-2
# Test Name: Cell proliferation assay (CellTiter-Glo, 72 hours)
# Format: cell-based
# Protocol Conditions: Homo sapiens, SET-2 cells
Endpoint Label: IC50 (µM)

>  <Compound>
Cc1ccc(Cl)cc1-c1[nH]c(-c2nc(N)ncc2C#Cc2ccc(OC3CCN(C)CC3)cc2)cc1C(N)=O

>  <IC50 (µM)>
0.16

$$$$

a. COc1ccc(N2CCN(C)CC2)cc1C#Cc1cnc(N)nc1-c1cc(C(N)=O)c(-c2cc(Cl)ccc2C)[nH]1
b. Cc1ccc(Cl)cc1-c1[nH]c(-c2nc(N)ncc2C#Cc2ccccc2NCCO)cc1C(N)=O
c. Cc1ccc(Cl)cc1-c1[nH]c(-c2nc(N)ncc2C#Cc2cccc(N3CCN(C)CC3)c2)cc1C(N)=O
// query With regard to IC50, arrange the entries in ascending order, please. // respond by listing labels in the order requested
// result c, a, b

Entry source: patent US8912200B2
